# System: ACHN
# testMethodNotes: NCI single-dose screen (SRB)
# Format: cell-based
# testContext: Homo sapiens; Renal Cancer ACHN; 10^−5 M; read-out: Growth inhibition percentage
Would you kindly list inhibition at 10 µM for each of these compounds?
Numbers only, in %.

// known answers, use as guide
| compound | quantityUnit | inhibition at 10 µM |
| --- | --- | --- |
| COC(=O)C=C1SC(=NNC(=O)c2cc3ccc2CCc2ccc(cc2)CC3)N(Cc2ccccc2)C1=O [Compound 3b] | % | 34.2 |
| C=CCN1C(=O)C(=CC(=O)OC)SC1=NNC(=O)c1cc2ccc1CCc1ccc(cc1)CC2 [Compound 3d] | % | 12.2 |

Batch: inhibition at 10 µM for all items listed.
1. COC(=O)/C=C1/S/C(=N/NC(=O)c2cc3ccc2CCc2ccc(cc2)CC3)N(C2CC2)C1=O [Compound 3f]
2. COC(=O)C=C1SC(=Nc2cccnc2)N(NC(=O)c2cc3ccc2CCc2ccc(cc2)CC3)C1=O [Compound 3c]
3. CCN1C(=O)C(=CC(=O)OC)SC1=NNC(=O)c1cc2ccc1CCc1ccc(cc1)CC2 [Compound 3e]
4. COC(=O)C=C1SC(=NNC(=O)c2cc3ccc2CCc2ccc(cc2)CC3)N(c2ccccc2)C1=O [Compound 3a]

Key:
1. 17.8
2. 11
3. 10.4
4. 30.7

###

# Test system: SF-268
# testMethodNotes: NCI single-dose screen (SRB)
# Type: cell-based
# testContext: Homo sapiens; CNS Cancer SF-268; 10^−5 M; read-out: Growth inhibition percentage
measuredQuantity: inhibition at 10 µM (%)
One number for each entry, in %.

| smilesString | quantityUnit | inhibition at 10 µM |
| --- | --- | --- |
| COC(=O)/C=C1/S/C(=N/NC(=O)c2cc3ccc2CCc2ccc(cc2)CC3)N(C2CC2)C1=O | % | 2.56 |
| COC(=O)C=C1SC(=NNC(=O)c2cc3ccc2CCc2ccc(cc2)CC3)N(Cc2ccccc2)C1=O | % | 14.9 |
| COC(=O)C=C1SC(=NNC(=O)c2cc3ccc2CCc2ccc(cc2)CC3)N(c2ccccc2)C1=O | % | 27.5 |
| CCN1C(=O)C(=CC(=O)OC)SC1=NNC(=O)c1cc2ccc1CCc1ccc(cc1)CC2 | % | 2.18 |
| C=CCN1C(=O)C(=CC(=O)OC)SC1=NNC(=O)c1cc2ccc1CCc1ccc(cc1)CC2 | % | 0 |

# ---- query compound ----
Exercise: State its inhibition at 10 µM: `COC(=O)C=C1SC(=Nc2cccnc2)N(NC(=O)c2cc3ccc2CCc2ccc(cc2)CC3)C1=O`
Key: 3.08

###

# Test system: HOP-62
# testMethodNotes: NCI single-dose screen (SRB)
# Format: cell-based
# testContext: Homo sapiens; Non-Small-Cell Lung Cancer HOP-62; 10^−5 M; read-out: Growth inhibition percentage
Would you kindly list inhibition at 10 µM for each of these compounds?
One number for each entry, in %.

| smilesString | inhibition at 10 µM [%] |
| --- | --- |
| COC(=O)C=C1SC(=NNC(=O)c2cc3ccc2CCc2ccc(cc2)CC3)N(Cc2ccccc2)C1=O | 22.8 |
| COC(=O)C=C1SC(=Nc2cccnc2)N(NC(=O)c2cc3ccc2CCc2ccc(cc2)CC3)C1=O | 4 |
| COC(=O)/C=C1/S/C(=N/NC(=O)c2cc3ccc2CCc2ccc(cc2)CC3)N(C2CC2)C1=O | 0 |
| COC(=O)C=C1SC(=NNC(=O)c2cc3ccc2CCc2ccc(cc2)CC3)N(c2ccccc2)C1=O | 97 |
| C=CCN1C(=O)C(=CC(=O)OC)SC1=NNC(=O)c1cc2ccc1CCc1ccc(cc1)CC2 | 0 |

# ---- query compound ----
Exercise: State its inhibition at 10 µM: `CCN1C(=O)C(=CC(=O)OC)SC1=NNC(=O)c1cc2ccc1CCc1ccc(cc1)CC2`
Key: 0

###

Would you kindly list inhibition at 10 µM for each of these compounds?
# Tested on: HS 578T
# testMethodNotes: NCI single-dose screen (SRB)
# Format: cell-based
# testContext: Homo sapiens; Breast Cancer HS 578T; 10^−5 M; read-out: Growth inhibition percentage
One number for each entry, in %.

| compound | measuredQuantity | dataValue |
| --- | --- | --- |
| COC(=O)/C=C1/S/C(=N/NC(=O)c2cc3ccc2CCc2ccc(cc2)CC3)N(C2CC2)C1=O [Compound 3f] | inhibition at 10 µM | 5.01 |

Batch: inhibition at 10 µM for all items listed.
1. C=CCN1C(=O)C(=CC(=O)OC)SC1=NNC(=O)c1cc2ccc1CCc1ccc(cc1)CC2 [Compound 3d]
2. COC(=O)C=C1SC(=NNC(=O)c2cc3ccc2CCc2ccc(cc2)CC3)N(Cc2ccccc2)C1=O [Compound 3b]
3. COC(=O)C=C1SC(=Nc2cccnc2)N(NC(=O)c2cc3ccc2CCc2ccc(cc2)CC3)C1=O [Compound 3c]
4. COC(=O)C=C1SC(=NNC(=O)c2cc3ccc2CCc2ccc(cc2)CC3)N(c2ccccc2)C1=O [Compound 3a]
5. CCN1C(=O)C(=CC(=O)OC)SC1=NNC(=O)c1cc2ccc1CCc1ccc(cc1)CC2 [Compound 3e]

Key:
1. 6.41
2. 12.6
3. 0
4. 22.1
5. 1.03

###

# System: A549/ATCC
# testMethodNotes: NCI single-dose screen (SRB)
# Format: cell-based
# testContext: Homo sapiens; Non-Small-Cell Lung Cancer A549/ATCC; 10^−5 M; read-out: Growth inhibition percentage
# Experimental: The methodology of the NCI anticancer screening was described in detail elsewhere (http://www.dtp.nci.nih.gov). […] Tested compounds were added to the culture at a single concentration (10^−5 M) and the cultures were incubated for 48 h. End-point determinations were made with a protein binding dye, SRB. […] The percentage growth was evaluated spectrophotometrically versus controls not treated with test agents. […]
measuredQuantity: inhibition at 10 µM (%)
Numbers only, in %.

// known answers, use as guide
| molecule | measuredQuantity | quantityUnit | dataValue |
| --- | --- | --- | --- |
| COC(=O)C=C1SC(=NNC(=O)c2cc3ccc2CCc2ccc(cc2)CC3)N(c2ccccc2)C1=O [Compound 3a] | inhibition at 10 µM | % | 30.9 |
| CCN1C(=O)C(=CC(=O)OC)SC1=NNC(=O)c1cc2ccc1CCc1ccc(cc1)CC2 [Compound 3e] | inhibition at 10 µM | % | 3 |
| C=CCN1C(=O)C(=CC(=O)OC)SC1=NNC(=O)c1cc2ccc1CCc1ccc(cc1)CC2 [Compound 3d] | inhibition at 10 µM | % | 5.2 |
| COC(=O)C=C1SC(=Nc2cccnc2)N(NC(=O)c2cc3ccc2CCc2ccc(cc2)CC3)C1=O [Compound 3c] | inhibition at 10 µM | % | 2.04 |
| COC(=O)/C=C1/S/C(=N/NC(=O)c2cc3ccc2CCc2ccc(cc2)CC3)N(C2CC2)C1=O [Compound 3f] | inhibition at 10 µM | % | 11.4 |

# ---- query molecule ----
Exercise: # lookup: A549/ATCC inhibition at 10 µM, key = COC(=O)C=C1SC(=NNC(=O)c2cc3ccc2CCc2ccc(cc2)CC3)N(Cc2ccccc2)C1=O [Compound 3b]
Key: 22.9

###

# System: HCC-2998
# testMethodNotes: NCI single-dose screen (SRB)
# Assay type: cell-based
# testContext: Homo sapiens; Colon Cancer HCC-2998; 10^−5 M; read-out: Growth inhibition percentage
# Procedure: The methodology of the NCI anticancer screening was described in detail elsewhere (http://www.dtp.nci.nih.gov). […] Tested compounds were added to the culture at a single concentration (10^−5 M) and the cultures were incubated for 48 h. End-point determinations were made with a protein binding dye, SRB. […] The percentage growth was evaluated spectrophotometrically versus controls not treated with test agents. […]
Would you kindly list inhibition at 10 µM for each of these molecules?
// return the numeric value with its unit appended

// known answers, use as guide
| smilesString | testedTarget | inhibition at 10 µM |
| --- | --- | --- |
| COC(=O)/C=C1/S/C(=N/NC(=O)c2cc3ccc2CCc2ccc(cc2)CC3)N(C2CC2)C1=O | HCC-2998 | 0% |
| COC(=O)C=C1SC(=Nc2cccnc2)N(NC(=O)c2cc3ccc2CCc2ccc(cc2)CC3)C1=O | HCC-2998 | 0% |
| C=CCN1C(=O)C(=CC(=O)OC)SC1=NNC(=O)c1cc2ccc1CCc1ccc(cc1)CC2 | HCC-2998 | 0% |
| CCN1C(=O)C(=CC(=O)OC)SC1=NNC(=O)c1cc2ccc1CCc1ccc(cc1)CC2 | HCC-2998 | 0% |

Batch: inhibition at 10 µM for all items listed.
1. COC(=O)C=C1SC(=NNC(=O)c2cc3ccc2CCc2ccc(cc2)CC3)N(Cc2ccccc2)C1=O
2. COC(=O)C=C1SC(=NNC(=O)c2cc3ccc2CCc2ccc(cc2)CC3)N(c2ccccc2)C1=O

Key:
1. 20.5%
2. 96.4%
